- target or system: Dihydrofolate reductase (Pneumocystis carinii, UniProt P16184)
- Sequence (P16184 whole entry): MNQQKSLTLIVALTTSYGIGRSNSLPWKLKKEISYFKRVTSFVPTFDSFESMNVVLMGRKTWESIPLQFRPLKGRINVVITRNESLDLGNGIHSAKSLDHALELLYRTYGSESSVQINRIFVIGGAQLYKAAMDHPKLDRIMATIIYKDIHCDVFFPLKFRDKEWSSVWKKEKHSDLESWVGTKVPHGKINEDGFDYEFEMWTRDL
pKi: −log10 of the molar value.
Reported pKi is given for each of the following molecules.
property measured: pKi

cpd smiles | observed measurement
CC(=O)Nc1cccc(OCc2cccc(N3C(N)=NC(N)=NC3(C)C)c2)c1 | 8.49
CC1(C)N=C(N)N=C(N)N1c1cccc(OCc2ccccc2)c1 | 7.19
CC1(C)N=C(N)N=C(N)N1c1cccc(OCCOc2cccc(C(F)(F)F)c2)c1 | 7.65

* * *

- target or system: Dihydrofolate reductase (Pneumocystis carinii, UniProt P16184)
- Sequence (P16184 whole entry): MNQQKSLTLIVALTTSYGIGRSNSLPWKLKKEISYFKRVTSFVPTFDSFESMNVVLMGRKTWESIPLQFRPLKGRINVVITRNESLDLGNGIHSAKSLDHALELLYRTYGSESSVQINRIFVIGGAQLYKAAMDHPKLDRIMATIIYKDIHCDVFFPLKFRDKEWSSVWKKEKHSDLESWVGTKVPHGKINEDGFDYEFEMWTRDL
Threshold check on Ki: strictly below 8 nM is condition met; on or above 8 nM is condition not met.

compound | classification
CC1(C)N=C(N)N=C(N)N1c1cccc(COc2cccc3ccccc23)c1 | condition met
CC1(C)N=C(N)N=C(N)N1c1cccc([N+](=O)[O-])c1 | condition not met
CC1(C)N=C(N)N=C(N)N1c1cccc(CNc2cc(C(N)=O)cc(C(N)=O)c2)c1 | condition not met
CC1(C)N=C(N)N=C(N)N1c1ccc(O)cc1 | condition not met
COc1cccc(OCc2cccc(N3C(N)=NC(N)=NC3(C)C)c2)c1 | condition met
CC(C)c1cccc(OCc2cccc(N3C(N)=NC(N)=NC3(C)C)c2)c1 | condition met
CCCCCCOc1cccc(N2C(N)=NC(N)=NC2(C)C)c1 | condition not met
CCOc1cc(Cc2cnc(N)nc2N)cc(OCC)c1-n1cccc1 [EPIROPRIM] | condition not met
CCCCCCCCCOc1cccc(N2C(N)=NC(N)=NC2(C)C)c1 | condition met
CC(C)(C)c1cccc(N2C(N)=NC(N)=NC2(C)C)c1 | condition not met

* * *

- test details: Selectivity index as the ratio of Ki value towards Human DHFR to that of Pneumocystis carinii DHFR.
Reported Selectivity index values for the following compounds.
property measured: Selectivity index

compound | observed measurement
CC1(C)N=C(N)N=C(N)N1c1cccc(OCC23CC4CC(CC(C4)C2)C3)c1 | 1.66
CCOc1cc(Cc2cnc(N)nc2N)cc(OCC)c1-n1cccc1 [EPIROPRIM] | 0.53
CC1(C)N=C(N)N=C(N)N1c1cccc(SCc2ccccc2)c1 | 1.18
CC1(C)N=C(N)N=C(N)N1c1cccc(COc2cccc3ccccc23)c1 | 1.38

* * *

- target or system: Dihydrofolate reductase (Pneumocystis carinii)
pKi: −log10 of the molar value.
Classify by measured pKi: criterion met if it is equal to or exceeds 8, criterion not met if it is smaller.

cpd smiles | target or system | classification
CC1(C)N=C(N)N=C(N)N1c1cccc(COc2cccc(CO)c2)c1 | Dihydrofolate reductase (Pneumocystis carinii) | criterion not met
CCc1cccc(OCc2cccc(N3C(N)=NC(N)=NC3(C)C)c2)c1 | Dihydrofolate reductase (Pneumocystis carinii) | criterion met

* * *

As an illustration, consider measured Ki for compounds on Dihydrofolate reductase (Pneumocystis carinii, UniProt P16184).
property measured: Ki (nM)

cpd smiles | output unit | observed measurement
CCOC(=O)c1cccc(N2C(N)=NC(N)=NC2(C)C)c1 | nM | 2340
Cc1cccc(OCc2cccc(N3C(N)=NC(N)=NC3(C)C)c2)c1 | nM | 19.5
CCCCCCCCCCCCCCOc1cccc(N2C(N)=NC(N)=NC2(C)C)c1 | nM | 331
CC1(C)N=C(N)N=C(N)N1c1cccc(SCc2ccc(Cl)cc2)c1 | nM | 2.63
CCCCCCCCCCCOc1cccc(N2C(N)=NC(N)=NC2(C)C)c1 | nM | 18.6
CCCCCOc1ccc(N2C(N)=NC(N)=NC2(C)C)cc1 | nM | 257

* * *

- test details: Partition coefficient (logP)
- Type: physicochemical
- condition notes: octanol/water

cpd smiles | logP
CN(C)C(=O)c1cccc(COc2ccc(N3C(N)=NC(N)=NC3(C)C)cc2Cl)c1 | -1.84
CC1(C)N=C(N)N=C(N)N1c1ccc(CCCCc2ccc(S(=O)(=O)F)cc2Cl)c(Cl)c1 | 2.42

* * *

- target or system: Dihydrofolate reductase (Pneumocystis carinii, UniProt P16184)
Readings of Ki for the listed molecules

cpd smiles | Ki (nM)
CC1(C)N=C(N)N=C(N)N1c1cccc(COc2cccc(Cl)c2)c1 | 12
CC1(C)N=C(N)N=C(N)N1c1cccc(OCC23CC4CC(CC(C4)C2)C3)c1 | 17
CC1(C)N=C(N)N=C(N)N1c1cccc(COc2cccc(C#N)c2)c1 | 8.32
